Give viability, T/C for every item shown.
Test system: 817829-284-R-J1-PDC complex spheroids, viability
Method Description: Anticancer human tumor 817829-284-R-J1-PDC patient-derived colon adenocarcinoma cell line growth inhibition [GQUAD]
Experimental Parameters: second compound 0.0316 µM; first compound 3.16 µM; active compounds read low

Prompt line: Name the recorded viability, T/C for CC(C)(O)C1CCC(Nc2ccc3ncc(-c4cccc(C(F)(F)F)c4)n3n2)CC1 (stereo not given) + CN(C)c1ccc(Nc2c3ccc(NC(=O)CCN4CCCC4)cc3nc3cc(NC(=O)CCN4CCCC4)ccc23)cc1 .
Response line: 35.7%

Prompt line: Okay, and CC1COCCN1c1cc(C2(O)CC3CCC(C2)O3)c2cnn(-c3ccn[nH]3)c2n1 (stereo not given) + Cc1cnc(CNC(=O)c2c(=O)c3ccc(N4CCCN(C)CC4)nc3n3c2sc2ccccc23)cn1 ?
Response line: 5.19%

Prompt line: And then CC1COCCN1c1cc(C2(S(C)(=N)=O)CC2)nc(-c2ccnc3[nH]ccc23)n1 (stereo not given) + Cc1[nH]c2ccc(F)cc2c1-c1nc2c3cccnc3c3ncccc3c2[nH]1 , what is it?
Response line: 11.6%

Prompt line: And then CC1COCCN1c1cc(C2(O)CC3CCC(C2)O3)c2cnn(-c3ccn[nH]3)c2n1 (stereo not given) + Cc1[nH]c2ccc(F)cc2c1-c1nc2c3cccnc3c3ncccc3c2[nH]1 , what is it?
Response line: 5.12%

Prompt line: Proceed to CC1COCCN1c1cc(C2(O)CC3CCC(C2)O3)c2cnn(-c3ccn[nH]3)c2n1 (stereo not given) + CN(C)c1ccc(Nc2c3ccc(NC(=O)CCN4CCCC4)cc3nc3cc(NC(=O)CCN4CCCC4)ccc23)cc1
Response line: 6.14%

Prompt line: // query: COc1ccc([C@@H](O)c2cc(-c3ncnc4cc(N5CCOCC5)ccc34)c(F)cc2Cl)nn1 + Cc1cnc(CNC(=O)c2c(=O)c3ccc(N4CCCN(C)CC4)nc3n3c2sc2ccccc23)cn1
Response line: 27.9%

Prompt line: Try the compound CC(=O)O[C@H]1C(=O)[C@@]2(C)[C@H]([C@H](OC(=O)c3ccccc3)[C@]3(O)C[C@H](OC(=O)[C@H](O)[C@@H](NC(=O)c4ccccc4)c4ccccc4)C(C)=C1C3(C)C)[C@]1(OC(C)=O)CO[C@@H]1C[C@@H]2O + Cc1cnc(CNC(=O)c2c(=O)c3ccc(N4CCCN(C)CC4)nc3n3c2sc2ccccc23)cn1
Response line: 6.63%

Prompt line: Cool, now Nc1ccn(C2OC(CO)C(O)C2(F)F)c(=O)n1 (stereo not given) + Cc1cnc(CNC(=O)c2c(=O)c3ccc(N4CCCN(C)CC4)nc3n3c2sc2ccccc23)cn1
Response line: 5.09%

Prompt line: Then this compound: C#Cc1c(F)ccc2cc(O)cc(-c3ncc4c(N5CC6CCC(C5)N6)nc(OCC56CCCN5CC(F)C6)nc4c3F)c12 (stereo not given) + Cc1cnc(CNC(=O)c2c(=O)c3ccc(N4CCCN(C)CC4)nc3n3c2sc2ccccc23)cn1
Response line: 91.2%

Prompt line: Please give the result for Cc1cccc(N(C)C(=O)C2C(O)CCN2c2nc(C)cc(C(F)(F)F)c2C#N)c1 (stereo not given) + CN(C)c1ccc(Nc2c3ccc(NC(=O)CCN4CCCC4)cc3nc3cc(NC(=O)CCN4CCCC4)ccc23)cc1 too.
Response line: 92.8%

====

System: 817829-284-R-J1-PDC complex spheroids, viability
Method Description: Anticancer human tumor 817829-284-R-J1-PDC cell line growth inhibition [GQUAD];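 note: spheroids exposed to agents for 7 days before readout; percent viability relative to DMSO vehicle control taken as 100%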
Experimental Parameters: second compound 0.0316 µM; first compound 0.0316 µM; active compounds read low
Property Label: viability, T/C (%)
Give your result in % as a bare value.

Prompt line: Query (molecule): O=C(c1cc(Cc2n[nH]c(=O)c3ccccc23)ccc1F)N1CCN(C(=O)C2CC2)CC1 + Cc1cnc(CNC(=O)c2c(=O)c3ccc(N4CCCN(C)CC4)nc3n3c2sc2ccccc23)cn1 ; field requested: viability, T/C
Response line: 78.9

Prompt line: Now the molecule O=c1[nH]cc(F)c(=O)[nH]1 + CN(C)c1ccc(Nc2c3ccc(NC(=O)CCN4CCCC4)cc3nc3cc(NC(=O)CCN4CCCC4)ccc23)cc1
Response line: 112

Prompt line: Repeat with Nc1ccn(C2OC(CO)C(O)C2(F)F)c(=O)n1 (stereo unspecified) + CN(C)c1ccc(Nc2c3ccc(NC(=O)CCN4CCCC4)cc3nc3cc(NC(=O)CCN4CCCC4)ccc23)cc1
Response line: 11.1

Prompt line: Same read-out for CCc1c2c(nc3ccc(O)cc13)-c1cc3c(c(=O)n1C2)COC(=O)[C@]3(O)CC + Cc1cnc(CNC(=O)c2c(=O)c3ccc(N4CCCN(C)CC4)nc3n3c2sc2ccccc23)cn1 ?
Response line: 14.1

Prompt line: Next entry: COc1cc(C2c3cc4c(cc3C(OC3OC5COC(C)OC5C(O)C3O)C3COC(=O)C23)OCO4)cc(OC)c1O (stereo unspecified) + Cc1[nH]c2ccc(F)cc2c1-c1nc2c3cccnc3c3ncccc3c2[nH]1
Response line: 110

Prompt line: What about this molecule? O=c1[nH]cc(F)c(=O)[nH]1 + Cc1cnc(CNC(=O)c2c(=O)c3ccc(N4CCCN(C)CC4)nc3n3c2sc2ccccc23)cn1
Response line: 91.4

====

Test system: 817829-284-R-J1-PDC complex spheroids, viability
Method Description: Anticancer human tumor 817829-284-R-J1-PDC cell line growth inhibition [GQUAD];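 note: spheroids exposed to agents for 7 days before readout; percent viability relative to DMSO vehicle control taken as 100%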
Experimental Parameters: second compound 0.1 µM; first compound 0.1 µM; active compounds read low
Property Label: viability, T/C

Prompt line: Would you mind telling me what viability, T/C value was observed for CC1COCCN1c1cc(C2(S(C)(=N)=O)CC2)nc(-c2ccnc3[nH]ccc23)n1 (stereo unspecified) + Cc1cnc(CNC(=O)c2c(=O)c3ccc(N4CCCN(C)CC4)nc3n3c2sc2ccccc23)cn1 ?
Response line: 37.9%

Prompt line: Okay, and O=c1[nH]cc(F)c(=O)[nH]1 + Cc1[nH]c2ccc(F)cc2c1-c1nc2c3cccnc3c3ncccc3c2[nH]1 ?
Response line: 101%

Prompt line: Request: COc1ccc([C@@H](O)c2cc(-c3ncnc4cc(N5CCOCC5)ccc34)c(F)cc2Cl)nn1 + Cc1cnc(CNC(=O)c2c(=O)c3ccc(N4CCCN(C)CC4)nc3n3c2sc2ccccc23)cn1
Response line: 37.5%

Prompt line: And then Cc1cccc(N(C)C(=O)C2C(O)CCN2c2nc(C)cc(C(F)(F)F)c2C#N)c1 (stereo unspecified) + CN(C)c1ccc(Nc2c3ccc(NC(=O)CCN4CCCC4)cc3nc3cc(NC(=O)CCN4CCCC4)ccc23)cc1 , what is it?
Response line: 109%

Prompt line: And for C=CC(=O)N1CCN(c2nc(=O)n(-c3c(C)ccnc3C(C)C)c3nc(-c4c(O)cccc4F)c(F)cc23)C(C)C1 (stereo unspecified) + Cc1cnc(CNC(=O)c2c(=O)c3ccc(N4CCCN(C)CC4)nc3n3c2sc2ccccc23)cn1 ?
Response line: 38.1%

Prompt line: Try this molecule next: O=c1[nH]cc(F)c(=O)[nH]1 + Cc1cnc(CNC(=O)c2c(=O)c3ccc(N4CCCN(C)CC4)nc3n3c2sc2ccccc23)cn1
Response line: 41.6%

====

Test system: 817829-284-R-J1-PDC complex spheroids, viability
Method Description: Anticancer human tumor 817829-284-R-J1-PDC cell line growth inhibition [GQUAD];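 note: spheroids exposed to agents for 7 days before readout; percent viability relative to DMSO vehicle control taken as 100%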
Experimental Parameters: second compound 3.16 µM; first compound 3.16 µM; active compounds read low
With a cut-off of 0.8%, any viability, T/C strictly below it is called met; any viability, T/C meeting it or above is called not met.

Prompt line: Identify whether the compound O=c1[nH]cc(F)c(=O)[nH]1 + CN(C)c1ccc(Nc2c3ccc(NC(=O)CCN4CCCC4)cc3nc3cc(NC(=O)CCN4CCCC4)ccc23)cc1 records viability, T/C below 0.8%.
Response line: not met

Prompt line: Now the same for O=C(NO)c1cnc(N2CCN(S(=O)(=O)c3ccc4ccccc4c3)CC2)nc1 + CN(C)c1ccc(Nc2c3ccc(NC(=O)CCN4CCCC4)cc3nc3cc(NC(=O)CCN4CCCC4)ccc23)cc1
Response line: met

Prompt line: Now consider C#Cc1c(F)ccc2cc(O)cc(-c3ncc4c(N5CC6CCC(C5)N6)nc(OCC56CCCN5CC(F)C6)nc4c3F)c12 (stereo unspecified) + Cc1[nH]c2ccc(F)cc2c1-c1nc2c3cccnc3c3ncccc3c2[nH]1 .
Response line: not met

Prompt line: COc1cc(C2c3cc4c(cc3C(OC3OC5COC(C)OC5C(O)C3O)C3COC(=O)C23)OCO4)cc(OC)c1O (stereo unspecified) + Cc1[nH]c2ccc(F)cc2c1-c1nc2c3cccnc3c3ncccc3c2[nH]1 ?
Response line: not met

Prompt line: Now the same for C=CC(=O)N1CCN(c2nc(=O)n(-c3c(C)ccnc3C(C)C)c3nc(-c4c(O)cccc4F)c(F)cc23)C(C)C1 (stereo unspecified) + Cc1cnc(CNC(=O)c2c(=O)c3ccc(N4CCCN(C)CC4)nc3n3c2sc2ccccc23)cn1
Response line: not met

Prompt line: Same question for Cc1cccc(N(C)C(=O)C2C(O)CCN2c2nc(C)cc(C(F)(F)F)c2C#N)c1 (stereo unspecified) + CN(C)c1ccc(Nc2c3ccc(NC(=O)CCN4CCCC4)cc3nc3cc(NC(=O)CCN4CCCC4)ccc23)cc1 please.
Response line: not met

Prompt line: Subsequent entry: COc1cccc2c1C(=O)c1c(O)c3c(c(O)c1C2=O)CC(O)(C(=O)CO)CC3OC1CC(N)C(O)C(C)O1 (stereo unspecified) + CN(C)c1ccc(Nc2c3ccc(NC(=O)CCN4CCCC4)cc3nc3cc(NC(=O)CCN4CCCC4)ccc23)cc1
Response line: met

Prompt line: Here is the next compound: CCCS(=O)(=O)Nc1ccc(F)c(C(=O)c2c[nH]c3ncc(-c4ccc(Cl)cc4)cc23)c1F + Cc1[nH]c2ccc(F)cc2c1-c1nc2c3cccnc3c3ncccc3c2[nH]1
Response line: not met

Prompt line: Again, but for Nc1ccn(C2OC(CO)C(O)C2(F)F)c(=O)n1 (stereo unspecified) + CN(C)c1ccc(Nc2c3ccc(NC(=O)CCN4CCCC4)cc3nc3cc(NC(=O)CCN4CCCC4)ccc23)cc1
Response line: not met

Prompt line: Let us now turn to O=C(NO)c1cnc(N2CCN(S(=O)(=O)c3ccc4ccccc4c3)CC2)nc1 + Cc1cnc(CNC(=O)c2c(=O)c3ccc(N4CCCN(C)CC4)nc3n3c2sc2ccccc23)cn1
Response line: met
